Form field: half-life at 5 mM (one value per entry).
assay: Stability test in plasma; type: in vitro ADME; settings: Rat plasma; 37° C.

Use these answered entries as a reference point.
Inquiry: Note down half-life at 5 mM recorded for Cc1ccc2oc(C(=O)N/N=C/c3c(Cl)n(C)c4ccccc34)cc2c1
Reply text: > 3 h

Inquiry: Note down half-life at 5 mM recorded for CCOCCn1c(Cl)c(/C=N/NC(=O)c2cc3cc(C)ccc3o2)c2ccccc21
Reply text: > 3 h

Lab note: next compound to report on.
Inquiry: Note down half-life at 5 mM recorded for CCOCCn1c(Cl)c(/C=N/NC(=O)c2cc3cc(C)ccc3o2)c2cc(OC)ccc21
Reply text: > 3 h
